Study Target: IMP-1 (Serratia marcescens, UniProt P52699)
Sequence (P52699 whole entry, looked up): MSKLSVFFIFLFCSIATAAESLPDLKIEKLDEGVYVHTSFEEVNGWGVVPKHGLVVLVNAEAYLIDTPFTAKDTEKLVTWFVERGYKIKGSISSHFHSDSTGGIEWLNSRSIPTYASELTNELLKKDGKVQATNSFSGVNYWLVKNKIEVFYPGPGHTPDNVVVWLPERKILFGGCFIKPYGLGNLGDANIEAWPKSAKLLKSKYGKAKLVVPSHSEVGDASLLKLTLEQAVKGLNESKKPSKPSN
Protocol Text: biochemical
Format: biochemical
Conditions Used: IMP-1 enzyme, CCF2-FA substrate; read-out: IMP-1 IC50
Could you please mark T for values of IC50 below 10 nM and F for values at or above it?

Before answering, review these 3 worked examples.
NS(=O)(=O)c1cccc(-c2cnc3nc(C(F)(F)F)ccn23)c1-c1nnn[nH]1 [Example 650]
F
NS(=O)(=O)c1c(C(F)(F)F)ccc(C2CCn3cncc3C2)c1-c1nnn[nH]1 (stereo not shown) [Example 494]
F
NC1(c2ccc(-c3ccc(C(F)(F)F)c(S(N)(=O)=O)c3-c3nnn[nH]3)cc2)CC(O)C1 (stereo not shown) [Example 728]
T

A record lists NS(=O)(=O)c1c(C(F)(F)F)ccc(-c2ccc(S(=O)(=O)CCO)cc2)c1-c1nnn[nH]1 [Example 742] . Is its IC50 below 10 nM?
T

Does NS(=O)(=O)c1c(C(F)(F)F)ccc([C@H]2CC[C@H](NC3CC[C@H]4NCC[C@@H]34)CC2)c1-c1nnn[nH]1 (stereo partly shown) [Example 692] have IC50 strictly under 10 nM?
F

Field: below-cutoff. Rule: recorded IC50 strictly less than 10 nM. Subject: NCCC1CCC(N[C@H]2CC[C@H](c3ccc(C(F)(F)F)c(S(N)(=O)=O)c3-c3nnn[nH]3)CC2)CC1 (stereo partly shown) [Example 705]
F

Quick check: does NC1CCC(N[C@H]2CC[C@H](c3ccc(C(F)(F)F)c(S(N)(=O)=O)c3-c3nnn[nH]3)CC2)C1 (stereo partly shown) [Example 703] have IC50 under 10 nM?
F

----------
Listing: log10 IC50 of selected compounds
Study Target: VIM-1 (Pseudomonas aeruginosa (strain ATCC 15692 / DSM 22644 / CIP 104116 / JCM 14847 / LMG 12228 / 1C / PRS 101 / PAO1), UniProt A0A0F7KYQ8)
Protocol Text: Enzyme activity: determination of IC50, fluorescence assay with CCF2-FA substrate (VIM-1)
Type: biochemical
Conditions Used: fluorescence assay with CCF2-FA substrate; read-out: VIM-1 IC50
Log scale reminder: IC50 in µM, then log10 taken.

NS(=O)(=O)c1nccc(-c2ccc3[nH]ncc3c2)c1-c1nn[nH]n1 [Example 199]
-1.61

Sample NS(=O)(=O)c1cccc(-c2ccc3c(c2)C(=O)NC3)c1-c1nn[nH]n1 [Example 53] — what was its log10 IC50?
-1.43

Requested field: log10 IC50. Item: CC1C(=O)Nc2ccc(-c3cccc(S(N)(=O)=O)c3-c3nn[nH]n3)cc21 (stereo not drawn) [Example 73]
-1.18

I would be grateful if you could share the reported log10 IC50 for NS(=O)(=O)c1c(C(F)(F)F)ccc(-c2ccc(C3CCN(C4CC5(CCNCC5)C4)CC3)cc2)c1-c1nnn[nH]1 [Example 797] .
-2.00

# log10 IC50 lookup, item CS(=O)(=O)Nc1cccc(-c2ccnc(S(N)(=O)=O)c2-c2nn[nH]n2)c1 [Example 202]
-0.93

Name the recorded log10 IC50 for NS(=O)(=O)c1nccc(-c2ccc(C3CCNC3)cc2)c1-c1nnn[nH]1 (stereo not drawn) [Example 198] .
-1.00

Endpoint output: log10 IC50 of N#Cc1cncc(-c2cccc(S(N)(=O)=O)c2-c2nnn[nH]2)c1 [Example 136] . Value?
-0.82
